The values you see were collected from ChEMBL document CHEMBL1129309.

Exercise: for every item that follows, state its recorded pKi.
biological target: Kappa-type opioid receptor (Cavia porcellus); experiment: Activity was evaluated by inhibition of the binding of 1 nM [3H]U-69593 at Opioid receptor kappa 1 binding site
Sequence (P41144 whole entry): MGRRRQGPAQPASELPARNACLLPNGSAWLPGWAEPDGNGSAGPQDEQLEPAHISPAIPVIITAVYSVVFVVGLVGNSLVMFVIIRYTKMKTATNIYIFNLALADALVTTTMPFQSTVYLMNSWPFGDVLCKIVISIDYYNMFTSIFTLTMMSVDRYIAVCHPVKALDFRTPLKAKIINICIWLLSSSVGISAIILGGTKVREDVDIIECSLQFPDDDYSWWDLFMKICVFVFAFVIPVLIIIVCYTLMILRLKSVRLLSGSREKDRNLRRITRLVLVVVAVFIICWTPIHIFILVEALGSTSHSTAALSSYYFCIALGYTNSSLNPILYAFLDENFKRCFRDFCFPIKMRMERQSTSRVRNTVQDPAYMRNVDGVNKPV
Reminder that pKi is minus the log10 of a molar concentration.

IN: Which pKi is listed for COCC12Cc3ccc(O)cc3C(C)(CCC1N)C2 (stereo in doubt; (dl)-22) ?
OUT: 8.18

IN: Which measured pKi value corresponds to CN(C)C1CCC2(C)CC1(CO)Cc1ccc(O)cc12 (stereo in doubt; (-)-3c) ?
OUT: 5.42

IN: What value of measured pKi is listed for CN(C)C1CCC2(C)CC1(C)Cc1ccc(O)cc12 (single isomer, unassigned; (+)) ?
OUT: 5.22

IN: For CNC1CCC2(C)CC1(CO)Cc1ccc(O)cc12 (single isomer, unassigned; (-)) , what is its reported pKi?
OUT: 6.19

IN: Look up pKi: COCC12Cc3ccc(O)cc3C(C)(CCC1N)C2 (stereo in doubt; (+)3a)
OUT: 7.09

IN: Item CN1CC23Cc4ccc(O)cc4C(C)(CCC12)C3 (single isomer, unassigned; (+)) has what recorded pKi?
OUT: 6.67

IN: What does the record list as pKi for COCC12Cc3ccc(O)cc3[C@](C)(CCCN1C)C2 (single isomer, unassigned) ?
OUT: 6.10

IN: Please give the measured pKi for this compound: COCC12Cc3ccc(O)cc3C(C)(CCC1N)C2 (stereo in doubt; (-)-3a)
OUT: 7.27

IN: pKi lookup needed for COCC12Cc3ccc(O)cc3C(C)(CCC1N(C)C)C2 (single isomer, unassigned; (+)) , thanks.
OUT: 6.91

IN: Dear colleague, I am looking for the recorded pKi of the following compound: CC12CCC(N)C(CO)(Cc3ccc(O)cc31)C2 (single isomer, unassigned; (-))
OUT: 6.96

IN: // returns reported pKi for input CN(C)C1CCC2(C)CC1(CO)Cc1ccc(O)cc12 (single isomer, unassigned; (+))
OUT: 5.54

* * *

target: Mu-type opioid receptor (Bos taurus, UniProt P79350); test: Activity was evaluated by inhibition of the binding of 0.8 nM [3H]- DAMGO at Opioid receptor mu 1 binding site
Sequence (P79350 whole entry): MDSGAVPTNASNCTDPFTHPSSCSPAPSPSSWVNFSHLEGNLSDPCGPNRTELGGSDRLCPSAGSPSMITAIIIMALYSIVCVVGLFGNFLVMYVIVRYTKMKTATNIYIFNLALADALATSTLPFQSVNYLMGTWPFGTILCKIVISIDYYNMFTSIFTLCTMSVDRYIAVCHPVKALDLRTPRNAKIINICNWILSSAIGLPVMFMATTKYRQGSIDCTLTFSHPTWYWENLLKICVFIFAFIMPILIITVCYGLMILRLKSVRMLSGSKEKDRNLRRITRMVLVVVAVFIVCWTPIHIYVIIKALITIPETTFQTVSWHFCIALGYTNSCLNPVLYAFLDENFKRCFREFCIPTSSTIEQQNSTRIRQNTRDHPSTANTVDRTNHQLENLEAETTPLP
OBSERVATION_TYPE: Ki (nM)
State just the number; it will be interpreted in nM.

IN: Requested field: Ki. Item: CNCC12Cc3ccc(O)cc3C(C)(CCC1N)C2 (stereo not given)
OUT: 91.6

IN: # query: Ki of entry COCC12Cc3ccc(O)cc3C(C)(CCC1N(C)C)C2 (single isomer, unassigned; (-))
OUT: 19.3

IN: Entry COCC12Cc3ccc(O)cc3C(C)(CCC1N)C2 (stereo in doubt; (dl)-22) : reported Ki = ?
OUT: 1.99

IN: Please report the recorded Ki for CC12CCC(N)C(CO)(Cc3ccc(O)cc31)C2 (single isomer, unassigned; (-)) .
OUT: 40.6

IN: Fill in: Ki of CN1CNC2CCC3(C)CC2(Cc2ccc(O)cc23)C1 (stereo not given) is ___
OUT: 27.7
